Provide the reported growth of each item.
# Test system: HCC-2998 colon
# protocol: NCI-60 one-dose screen, 48 h (100 = growth as untreated, 0 = no growth, -100 = all killed)
# conditionNotes: 10 µM
Compounds without any hit were thinned out: in the full panel of roughly 83,000, 20% have a hit.
Give bare numbers, in %.

Some entries whose results are on file:
>  <molSmiles>
CC1(C)N=C(N)N=C(N)N1c1ccc(Cl)cc1

>  <growth, %>
36.8

$$$$
>  <molSmiles>
COc1cc2cc(c1Cl)N(C)C(=O)C[C@H](OC(=O)[C@H](C)N(C)C(C)=O)[C@]1(C)O[C@H]1[C@H](C)[C@@H]1C[C@@](O)(NC(=O)O1)[C@H](OC)C=C/C=C(\C)C2

>  <growth, %>
-32

$$$$
>  <molSmiles>
COc1cc(/C=C/C(=O)c2ccccc2)cc(OC)c1OC

>  <growth, %>
94.3

$$$$
>  <molSmiles>
COc1ccc(OC)c(/C=C2\CCc3ccccc3C2=O)c1

>  <growth, %>
73.9

$$$$
>  <molSmiles>
Cc1ccccc1N=C(c1ccccc1)C1C(=O)c2ccccc2C1=O

>  <growth, %>
104

$$$$
>  <molSmiles>
CCOC(=O)C(CCC(C)C)C(=O)OCC

>  <growth, %>
101

$$$$

For each of the compounds below, note its growth.
1. O=[N+]([O-])c1ccc(O)c(S(=O)(=O)O)c1
2. CCCCNC(=O)C(=O)NCCCC
3. O=C(O)[C@@H]1[C@H]2C[C@H]3c4[nH]c5ccccc5c4CCN3C[C@@H]2CC[C@@H]1O
4. Nc1ccc(N=Nc2ccc(O)cc2)c(N)n1
5. OCc1cccc2ccccc12

1: 112; 2: 114; 3: 135; 4: 81.5; 5: 108

---

# System: M14 melanoma
# protocol: NCI-60 one-dose screen, 48 h (100 = growth as untreated, 0 = no growth, -100 = all killed)
# conditionNotes: 10 µM
The panel holds about 83,000 compounds, 20% with a hit somewhere; the sample as a whole holds those more often.
measurementKind: growth (%)
Give bare numbers, in %.

For each of the molecules below, note its growth.
1. CC(=O)CC(=O)N(C)C
2. COc1ccc(NC(=O)CCl)cc1
3. CN(C)c1ccc2nc3ccc(=N)cc-3sc2c1
4. CNc1nc(NC)c2cn[nH]c2n1
5. CNC(=S)NC(C)(C)C
6. COc1cc(/C=N\Nc2ccccc2)ccc1OC(=O)c1ccccc1

[107, 75.1, 24.7, 102, 98.8, 60.2]

Consider the molecule O=[N+]([O-])c1ccc(-c2ncc(-c3ccc(Br)cc3)o2)cc1 and give its measured growth.
109

---

Provide the reported growth of each item.
# System: HOP-92 NSCLC
# protocol: NCI-60 one-dose screen, 48 h (100 = growth as untreated, 0 = no growth, -100 = all killed)
# conditionNotes: 10 µM
The panel holds about 83,000 compounds, 20% with a hit somewhere; the sample as a whole holds those more often. The source made the active and inactive calls. How the source made its calls: active means growth percent below 10; inactive means the rest.

Some entries whose results are on file:
>  <compound>
CCOC(=O)c1ccc(NC(=S)P(=O)(c2ccccc2)c2ccccc2)cc1

>  <result>
78.1% (inactive)

$$$$
>  <compound>
CCN1C(=O)/C(=C/C=C/N(C)c2ccccc2)SC1=S

>  <result>
103% (inactive)

$$$$
>  <compound>
O=C(O)CCC(NC(=O)OCc1ccccc1)C(=O)O (centres undefined)

>  <result>
95.9% (inactive)

$$$$
>  <compound>
COC(=O)Nc1nc2ccc(C(=O)c3cccs3)cc2[nH]1

>  <result>
63.9% (inactive)

$$$$
>  <compound>
CCOC(=O)C(C#N)Cc1ccccc1 (centres undefined)

>  <result>
101% (inactive)

$$$$
>  <compound>
NC(=O)c1ccc(N=C(N)N=C(N)N)cc1

>  <result>
83.2% (inactive)

$$$$

For each of the compounds below, note its growth.
1. Cc1nc2c(ccc3ccccc32)s1
2. CC1(c2ccccc2)NC(=O)NC1=O (centres undefined)
3. [O-][N+](=Nc1cccc(Cl)c1)c1cccc(Cl)c1
4. CCOC(=O)C1=C(Nc2ccc(Br)cc2)C(=O)N(CC)C1
5. OCC1OC(OC2C(O)C(CO)OC2(CO)OC2OC(CO)C(O)C(O)C2O)C(O)C(O)C1O (centres undefined)
6. COc1ccc(C(O)c2ccccc2)cc1 (centres undefined)

1. 93.7% (inactive)
2. 100% (inactive)
3. 94.1% (inactive)
4. 48.3% (inactive)
5. 90.3% (inactive)
6. 93.4% (inactive)

For each of the compounds below, note its growth.
1. O=C(Cc1ccc(OCc2ccccc2)cc1)NCc1ccc2c(c1)OCO2
2. CN(C)c1ccc(CNC(C(=O)c2ccccc2)c2ccccc2)cc1 (centres undefined)

1. 86.8% (inactive)
2. 78.9% (inactive)

For each of the compounds below, note its growth.
1. COC(=O)/C=C1\Sc2cc(F)ccc2NC1=O
2. O=C(NCCNC(=O)c1ccc(Cl)cc1Cl)c1ccc(Cl)cc1Cl
3. Cc1cc(OCCO)cc(C)c1Cl
4. CC(=O)OC(C(=O)O)c1ccccc1 (centres undefined)
5. O=C(NC1CCCCC1)OCc1c(COC(=O)NC2CCCCC2)c(-c2ccc(Cl)c(Cl)c2)n2c1CCC2
6. CCCC(=O)c1cc(C)ccc1OC
7. O=C(O)CCCc1ccccc1
8. Nc1nc2c(c(-c3nc(N)nc4c3CCc3ccccc3-4)n1)CCc1ccccc1-2

["82.4% (inactive)", "71.8% (inactive)", "114% (inactive)", "80.4% (inactive)", "-1.46% (active)", "81.5% (inactive)", "105% (inactive)", "95.1% (inactive)"]

For each of the compounds below, note its growth.
1. CN(C)CCC(=O)c1ccc(O)cc1
2. NNc1ccccc1C(=O)O

1: 98.5% (inactive); 2: 98.1% (inactive)
